A collection of binders and their measured EC50
target: T1, human CD40 expressed on cells (human, UniProt P25942 21-277); assay: flow cytometry, Raji cells;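 further: cell binding of antibodies to Raji cells detected by flow cytometry using an Alexa488-labelled anti-human IgG secondary antibody, primary incubation 1 h at 4 °C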
T1 construct: also called huCD40; Raji cells
property name: EC50 (µg/mL)

[[record]]
binder = "P1AE0999, humanized anti-CD40 antibody VH1d/VL1a, huIgG1_LALA_PG (antibody, V domains shown, huIgG1 with effector silent Fc (P329G, L234A, L235A)) VH: QVQLVQSGAEVKKPGASVKVSCKASGYSFTGYYIHWVRQAPGQSLEWMGRVIPNAGGTSYNQKFKGRVTLSVDKSISTAYMELSRLRSDDTAVYYCAREGIYWWGQGTTVTVSS VL: DIVMTQTPLSLSVTPGQPASISCRSSQSLVHSNGNTFLHWYLQKPGQSPQLLIYTVSNRFSGVPDRFSGSGSGTDFTLKISRVEAEDVGVYFCSQTTHVPWTFGGGTKVEIK"
property_name = "EC50"
reported = 0.15

[[record]]
binder = "P1AE1003, humanized anti-CD40 antibody VH1b/VL1b, huIgG1_LALA_PG (antibody, V domains shown, huIgG1 with effector silent Fc (P329G, L234A, L235A)) VH: QVQLVQSGAEVKKPGASVKVSCKASGYSFTGYYIHWVRQAPGKSLEWMGRVIPNAGGTSYNQKFKGRVTLTVDKSISTAYMELSRLRSDDTAVYYCAREGIYWWGQGTTVTVSS VL: DIVVTQTPLSLSVTPGQPASISCRSSQSLVHSNGNTFLHWYLQKPGQSPQLLIYTVSNRFSGVPDRFSGSGSGTDFTLKISRVEAEDVGVYFCSQTTHVPWTFGGGTKVEIK"
property_name = "EC50"
reported = 0.13

[[record]]
binder = "P1AE0405, humanized anti-CD40 antibody VH2b/VL2b, huIgG1_LALA_PG (antibody, V domains shown, huIgG1 with effector silent Fc (P329G, L234A, L235A); also called VL2b/VH2b) VH: EVQLLESGGGLVQPGGSLRLSCAASGYSFTGYYIHWVRQAPGKSLEWVGRVIPNAGGTSYNQKFKGRFTISVDNSKNTAYLQMNSLRAEDTAVYYCAREGIYWWGQGTTVTVSS VL: DIQMTQSPSSLSASVGDRVTITCRSSQSLVHSNGNTFLHWYQQKPGQSPKLLIYTVSNRFSGVPSRFSGSGSGTDFTLTISSLQPEDFATYFCSQTTHVPWTFGGGTKVEIK"
property_name = "EC50"
reported = 0.09

